molecular target: Peroxisome proliferator-activated receptor gamma (Homo sapiens) (UniProt P37231); assay: OT_PPARg_PPARgSRC1_0480: Odyssey Thera (OT) 8-hour Protein-Complementation Assay for Peroxisome Proliferator-activated Receptor Gamma / SRC-1 Co-activator (AID 2283387);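 also: nuclear to cytoplasmic split Venus YFP fluorescence ratio reporting PPARg SRC-1 interaction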
Sequence (P37231 whole entry, looked up): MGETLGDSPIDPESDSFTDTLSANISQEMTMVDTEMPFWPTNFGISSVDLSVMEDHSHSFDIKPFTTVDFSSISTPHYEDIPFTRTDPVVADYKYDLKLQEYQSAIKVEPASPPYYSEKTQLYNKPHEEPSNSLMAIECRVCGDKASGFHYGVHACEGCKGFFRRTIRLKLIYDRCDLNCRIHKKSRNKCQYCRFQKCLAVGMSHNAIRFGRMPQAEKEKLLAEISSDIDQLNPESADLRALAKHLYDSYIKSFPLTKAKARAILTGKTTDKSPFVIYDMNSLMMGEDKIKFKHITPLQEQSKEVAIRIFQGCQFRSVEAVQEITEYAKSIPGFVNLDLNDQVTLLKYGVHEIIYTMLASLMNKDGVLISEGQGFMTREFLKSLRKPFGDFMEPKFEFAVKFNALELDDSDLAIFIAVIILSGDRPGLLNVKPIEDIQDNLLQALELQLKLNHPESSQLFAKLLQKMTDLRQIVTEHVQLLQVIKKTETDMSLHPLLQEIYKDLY
Records with an inconclusive call do not appear. The source made the active and inactive calls. The calls were made as follows: active = hit-call score of the fitted dose curve at least 0.9, where 1 is the maximum; inconclusive = response in the unintended direction; inactive = score below 0.9.
Outcome codes: Yes for active, No for inactive

- molecule: "CCCC/C=C\\CCCCCCCCCC=O"
  tested target: "Peroxisome proliferator-activated receptor gamma (Homo sapiens) (UniProt P37231)"
  label: "No"
- molecule: "C=O"
  tested target: "Peroxisome proliferator-activated receptor gamma (Homo sapiens) (UniProt P37231)"
  label: "No"
- molecule: "BrC1CCC(Br)C(Br)CCC(Br)C(Br)CCC1Br (stereo not drawn)"
  tested target: "Peroxisome proliferator-activated receptor gamma (Homo sapiens) (UniProt P37231)"
  label: "No"
- molecule: "COc1ccc(O)cc1"
  tested target: "Peroxisome proliferator-activated receptor gamma (Homo sapiens) (UniProt P37231)"
  label: "No"
- molecule: "CCCCc1ccc(N)cc1"
  tested target: "Peroxisome proliferator-activated receptor gamma (Homo sapiens) (UniProt P37231)"
  label: "No"
- molecule: "CCCCC(CC)COC(=O)/C=C\\C(=O)OCC(CC)CCCC (stereo not drawn)"
  tested target: "Peroxisome proliferator-activated receptor gamma (Homo sapiens) (UniProt P37231)"
  label: "No"
- molecule: "CSc1nc(NC2CC2)nc(NC(C)(C)C)n1"
  tested target: "Peroxisome proliferator-activated receptor gamma (Homo sapiens) (UniProt P37231)"
  label: "No"
- molecule: "NCCCN1CCOCC1"
  tested target: "Peroxisome proliferator-activated receptor gamma (Homo sapiens) (UniProt P37231)"
  label: "No"
- molecule: "CC(C)CCCCCCCOC(=O)c1ccc(C(=O)OCCCCCCCC(C)C)c(C(=O)OCCCCCCCC(C)C)c1"
  tested target: "Peroxisome proliferator-activated receptor gamma (Homo sapiens) (UniProt P37231)"
  label: "No"
- molecule: "C=C(C)C(=O)O"
  tested target: "Peroxisome proliferator-activated receptor gamma (Homo sapiens) (UniProt P37231)"
  label: "No"
- molecule: "CCCCCCCCCCC(CO)CCCCCCCC (stereo not drawn)"
  tested target: "Peroxisome proliferator-activated receptor gamma (Homo sapiens) (UniProt P37231)"
  label: "No"
- molecule: "CCN(CC)CCOC(=O)c1ccc(N)cc1"
  tested target: "Peroxisome proliferator-activated receptor gamma (Homo sapiens) (UniProt P37231)"
  label: "No"
- molecule: "O=C(Oc1ccccc1)c1ccc(O)cc1"
  tested target: "Peroxisome proliferator-activated receptor gamma (Homo sapiens) (UniProt P37231)"
  label: "No"
- molecule: "COc1cc(C(C)(C)C)c(O)c(C(C)(C)C)c1"
  tested target: "Peroxisome proliferator-activated receptor gamma (Homo sapiens) (UniProt P37231)"
  label: "No"
- molecule: "CCCCCCCCCCCCN"
  tested target: "Peroxisome proliferator-activated receptor gamma (Homo sapiens) (UniProt P37231)"
  label: "No"
- molecule: "CC(C)(N)CO"
  tested target: "Peroxisome proliferator-activated receptor gamma (Homo sapiens) (UniProt P37231)"
  label: "No"
- molecule: "CCCCCCCCCC=O"
  tested target: "Peroxisome proliferator-activated receptor gamma (Homo sapiens) (UniProt P37231)"
  label: "No"
- molecule: "CCN(CC)c1ccc2c(-c3ccccc3C(=O)O)c3ccc(=[N+](CC)CC)cc-3oc2c1"
  tested target: "Peroxisome proliferator-activated receptor gamma (Homo sapiens) (UniProt P37231)"
  label: "Yes"
